The reader will find reported SH2 binding enrichment values listed item by item below.
# Target: c-Src SH2
# Protocol: SH2 binding enrichment of the phosphorylated peptide, bacterial display (enrichment ratio); higher = better substrate or ligand; peptides without Tyr show the background
// return a plain number; no unit text

Q: Form: Entry = RFWPRYVKVGS [NOG_Y172] | System = c-Src SH2 | SH2 binding enrichment = ____
Result: 0.446

###

A collection of sequences and their measured phosphorylation enrichment
# Tested on: AncSZ
# Protocol: phosphorylation enrichment, bacterial display (enrichment ratio); higher = better substrate or ligand; peptides without Tyr show the background
Could you respond with only the numeric value?

Q: Requested field: phosphorylation enrichment. Item: VRQQDYKKVEE [HADHA_Y283_V282D]
Result: 0.783

Q: Look at this sequence and give its reported phosphorylation enrichment. FLAVEYHKPHI [IDS_Y225_G224E]
Result: 0.779

Q: I would be grateful if you could share the reported phosphorylation enrichment for IFHENYNAGTY [CFI_Y421] .
Result: 0.804

Q: Fill blank: measured phosphorylation enrichment of the sequence GISDEYHVIRH [GCDH_Y398] is ____.
Result: 0.917

Q: For PRPAGYPSMVS [CACNA1C_Y1832_T1835M] , what is its reported phosphorylation enrichment?
Result: 0.678

Q: I am curious: what phosphorylation enrichment value has been reported for HAVFIYDICHV [TWNK_Y508_V507I_YF] ?
Result: 1.19

Q: // returns reported phosphorylation enrichment for input KTTGGYAGGLS [KRT8_Y419_S417G]
Result: 0.506

###

# Target: Grb2 SH2 (UniProt P62993)
# Sequence (P62993 whole entry, looked up): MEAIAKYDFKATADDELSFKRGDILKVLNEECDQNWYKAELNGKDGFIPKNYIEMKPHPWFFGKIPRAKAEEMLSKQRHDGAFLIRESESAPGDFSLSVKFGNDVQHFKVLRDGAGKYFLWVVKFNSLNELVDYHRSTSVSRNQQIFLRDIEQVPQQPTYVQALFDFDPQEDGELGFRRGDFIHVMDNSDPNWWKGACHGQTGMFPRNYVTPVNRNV
# Protocol: SH2 binding enrichment of the phosphorylated peptide, bacterial display (enrichment ratio); higher = better substrate or ligand; peptides without Tyr show the background
// reported SH2 binding enrichment per item
Lab note: jot the number down without any unit.

Examples from the recorded data:
- RAYRHYLLKQK [SCN2A_Y1919_R1918H]: 0.677
- LEDDMYRKTCT [XPA_Y257]: 1.04
- GDKENYGLPQP [BUB1_Y538_N534D]: 0.866
- FADIAYNFRQG [PAH_Y166_H170Q_YF]: 0.77
- SVEVPYEPPEV [TP53_Y220_V217E]: 0.977

Q: Bench note: what SH2 binding enrichment did KPPFSYNALIR [FOXG1_Y186_M191R] show?
Result: 1.01

Q: Bench note: what SH2 binding enrichment did QRAADYYSQQM [GBP6_Y333] show?
Result: 0.887

Q: Given GKSHIYFWTLE [EML2_Y230] , state its recorded SH2 binding enrichment.
Result: 0.902

Q: Tell me the measured SH2 binding enrichment of SSSGGYGGGYG [KRT19_Y61_A60G] , please.
Result: 0.924

Q: Quick check: SH2 binding enrichment of PRNLIYFGEHP [TRPV6_Y201_C197R] ?
Result: 0.531

Q: Which value of SH2 binding enrichment has been reported for GTHCHYKAPTV [FZD9_Y569] in the records?
Result: 1.25

Q: So what's the measured SH2 binding enrichment for this one? HKNNNYEPNLF [BRCA2_Y57]
Result: 0.637

Q: # input sequence: PKEQKYSFLQD [GH1_Y68_N73D] ; wanted: its SH2 binding enrichment
Result: 0.945

Q: Can you share its SH2 binding enrichment? I mean this sequence: ANVKWYRSGRE
Result: 0.739

Q: What value of SH2 binding enrichment has been reported for the following sequence? MFNPMYALFRT [HUWE1_Y4078]
Result: 1.09

Q: Form field: reported SH2 binding enrichment of LGQRIYQFIRS [DYRK1B_Y271_Q275R_YF]
Result: 1.38

Q: If you can, please state the reported SH2 binding enrichment value of MKGDYYRYLAE [YWHAG_Y131] .
Result: 0.815

Q: # SH2 binding enrichment lookup, item KIVATYRLCSE [DNAH3_Y1586]
Result: 0.685

Q: Requested field: SH2 binding enrichment. Item: QQLDKYQELLD [LMNA_Y359_E358K]
Result: 0.958

Q: Please report the recorded SH2 binding enrichment for CYSSEYHYVGG [CTSC_Y345_Y340C] .
Result: 0.884

Q: Look up SH2 binding enrichment: KDKLPYPFDDP [GPX2_Y125_YF]
Result: 0.815

Q: Entry under review: LVQAEYWHDRI [PPT1_Y185_P189R] . Reported SH2 binding enrichment?
Result: 0.699

Q: # lookup: SH2 binding enrichment of AFDNLYFWDQD [ERBB2_Y1221_YF]
Result: 0.865

Q: Query: SH2 binding enrichment; subject: PADCRYYAFPQ [GAMT_Y222]
Result: 0.898

###

Collected phosphorylation enrichment values appear next to each entry.
# Target: MERTK (UniProt Q12866)
# Sequence (Q12866 whole entry, looked up): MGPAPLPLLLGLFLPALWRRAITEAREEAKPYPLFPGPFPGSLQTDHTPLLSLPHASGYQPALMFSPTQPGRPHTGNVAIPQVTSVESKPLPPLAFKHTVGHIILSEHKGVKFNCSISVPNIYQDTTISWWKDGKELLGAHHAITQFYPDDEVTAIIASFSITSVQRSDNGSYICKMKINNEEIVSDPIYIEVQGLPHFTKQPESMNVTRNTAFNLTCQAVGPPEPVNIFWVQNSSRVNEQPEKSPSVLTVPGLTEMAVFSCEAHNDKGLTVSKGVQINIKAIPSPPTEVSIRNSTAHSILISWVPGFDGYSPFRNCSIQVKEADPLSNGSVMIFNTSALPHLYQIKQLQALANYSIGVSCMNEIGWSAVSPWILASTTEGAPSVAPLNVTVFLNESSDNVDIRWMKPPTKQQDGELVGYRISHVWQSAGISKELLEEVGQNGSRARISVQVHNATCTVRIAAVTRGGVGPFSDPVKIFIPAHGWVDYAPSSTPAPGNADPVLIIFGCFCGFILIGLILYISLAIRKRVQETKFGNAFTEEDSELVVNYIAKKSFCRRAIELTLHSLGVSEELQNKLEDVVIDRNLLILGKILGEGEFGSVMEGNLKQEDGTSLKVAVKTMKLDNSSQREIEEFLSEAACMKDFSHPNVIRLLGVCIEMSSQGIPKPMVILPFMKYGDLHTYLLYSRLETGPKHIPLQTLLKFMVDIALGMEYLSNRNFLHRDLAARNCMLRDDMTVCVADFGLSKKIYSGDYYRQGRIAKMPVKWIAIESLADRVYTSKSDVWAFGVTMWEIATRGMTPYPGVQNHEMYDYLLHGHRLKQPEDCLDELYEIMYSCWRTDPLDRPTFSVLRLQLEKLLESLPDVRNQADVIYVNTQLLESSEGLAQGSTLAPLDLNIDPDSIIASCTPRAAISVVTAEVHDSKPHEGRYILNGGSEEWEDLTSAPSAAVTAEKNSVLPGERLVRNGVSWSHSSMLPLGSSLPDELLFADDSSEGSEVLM
# Protocol: phosphorylation enrichment, bacterial display (enrichment ratio); higher = better substrate or ligand; peptides without Tyr show the background
When you answer, write just the number.

* LKYAIYFEARE [LAMA2_Y1258] | 0.907

Q: # get_value(readout= phosphorylation enrichment, system= MERTK (UniProt Q12866)) for SSMIDYNTLEK [MYOC_Y479_P481T]
Result: 0.408

Q: Which phosphorylation enrichment is reported with MERTK (UniProt Q12866) for this entry: SGSWSYNTSTE [SELE_Y24_A21S] ?
Result: 0.503

###

# System: AncSZ
# Protocol: phosphorylation enrichment, bacterial display (enrichment ratio); higher = better substrate or ligand; peptides without Tyr show the background
Measurement Type: phosphorylation enrichment
Just the number.

* EKQLLYSENKT [FRK_Y132] | 0.732
* LMQAEYWHDPI [PPT1_Y185_V181M] | 1.36
* DAGTDYVGISC [FREM2_Y2061_R2066C] | 1.31
* PYYASYPPSPD [GDAP2_Y491_T489A] | 1.41
* SIIKDSFHRGA [GATM_Y203_Y203S] | 0.423

Q: What phosphorylation enrichment value was documented for this sequence, AMIADYMFWLG [SPATA16_Y290] ?
Result: 2.24

Q: What value of phosphorylation enrichment has been recorded for this entry: ADSLRYIFPKL [EIF2B3_Y92_YF]
Result: 0.552

Q: // returns reported phosphorylation enrichment for input FRGFSYDDIPD [TMEM230_Y112_YF]
Result: 1.35

Q: Recorded phosphorylation enrichment for EVESPYEVHDF [GIGYF2_Y1168_YF] , please?
Result: 1.93

Q: Requested field: phosphorylation enrichment. Item: FSCLPCGRLAY [SLC52A2_Y305_Y305C]
Result: 0.832

###

# phosphorylation enrichment annotations
# Target: EPHB1 (UniProt P54762)
# Sequence (P54762 whole entry, looked up): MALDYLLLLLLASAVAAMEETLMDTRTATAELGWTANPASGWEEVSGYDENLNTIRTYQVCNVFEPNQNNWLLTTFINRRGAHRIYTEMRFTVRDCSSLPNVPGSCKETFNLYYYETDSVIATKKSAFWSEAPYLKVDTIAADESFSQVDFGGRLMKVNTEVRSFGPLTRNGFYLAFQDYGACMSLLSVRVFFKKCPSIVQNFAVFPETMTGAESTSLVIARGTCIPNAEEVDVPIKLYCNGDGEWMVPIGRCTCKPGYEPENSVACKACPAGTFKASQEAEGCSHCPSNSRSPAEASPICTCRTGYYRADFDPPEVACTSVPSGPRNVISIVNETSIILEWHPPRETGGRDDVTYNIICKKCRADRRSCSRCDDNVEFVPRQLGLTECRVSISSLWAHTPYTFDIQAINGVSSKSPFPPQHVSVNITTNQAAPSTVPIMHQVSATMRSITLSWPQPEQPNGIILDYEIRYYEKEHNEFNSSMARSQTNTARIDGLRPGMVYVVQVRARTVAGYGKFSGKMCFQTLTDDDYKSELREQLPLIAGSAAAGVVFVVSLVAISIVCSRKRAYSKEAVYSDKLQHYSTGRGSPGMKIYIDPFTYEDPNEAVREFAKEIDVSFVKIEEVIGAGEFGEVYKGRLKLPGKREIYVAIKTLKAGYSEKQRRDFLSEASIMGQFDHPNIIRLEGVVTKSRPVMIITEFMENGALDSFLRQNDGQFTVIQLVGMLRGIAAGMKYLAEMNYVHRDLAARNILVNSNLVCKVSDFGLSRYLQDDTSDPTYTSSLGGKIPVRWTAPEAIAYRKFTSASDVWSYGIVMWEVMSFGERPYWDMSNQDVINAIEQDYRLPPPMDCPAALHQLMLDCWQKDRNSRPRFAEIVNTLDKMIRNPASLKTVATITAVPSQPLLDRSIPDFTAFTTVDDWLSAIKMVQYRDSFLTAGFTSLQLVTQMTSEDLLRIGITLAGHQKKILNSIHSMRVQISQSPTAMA
# Protocol: phosphorylation enrichment, bacterial display (enrichment ratio); higher = better substrate or ligand; peptides without Tyr show the background
The response must contain the number and no unit.

Here are 3 sequences together with their reported answers.
* PLGKDYRKAEG [MAP1A_Y1909] | 0.512
* SVIKEYQIRQV [USH2A_Y3623_G3618S] | 0.505
* IHSGIYFKPES [L2HGDH_Y102_YF] | 0.996

As a next step, examine the sequence that follows.
Q: Given APGDAYGDAGF [SYP_Y250_YF] , state its recorded phosphorylation enrichment.
Result: 0.514

###

# Target: Fyn (UniProt P06241)
# Sequence (P06241 whole entry, looked up): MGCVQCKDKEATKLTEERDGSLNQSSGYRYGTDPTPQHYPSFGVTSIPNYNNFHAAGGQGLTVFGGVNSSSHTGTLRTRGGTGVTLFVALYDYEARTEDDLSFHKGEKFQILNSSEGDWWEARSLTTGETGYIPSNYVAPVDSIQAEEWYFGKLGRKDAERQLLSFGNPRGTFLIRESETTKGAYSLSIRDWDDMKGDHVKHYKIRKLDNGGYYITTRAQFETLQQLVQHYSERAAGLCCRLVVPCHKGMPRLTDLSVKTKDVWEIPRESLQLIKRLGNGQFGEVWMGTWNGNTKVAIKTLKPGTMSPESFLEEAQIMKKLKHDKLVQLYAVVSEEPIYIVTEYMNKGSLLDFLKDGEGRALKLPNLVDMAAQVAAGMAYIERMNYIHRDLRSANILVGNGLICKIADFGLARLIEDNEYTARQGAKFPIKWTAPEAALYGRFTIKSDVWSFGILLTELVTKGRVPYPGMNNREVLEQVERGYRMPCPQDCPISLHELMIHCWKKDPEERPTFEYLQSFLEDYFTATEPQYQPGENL
# Protocol: phosphorylation enrichment, bacterial display (enrichment ratio); higher = better substrate or ligand; peptides without Tyr show the background
Quick reference: phosphorylation enrichment of the listed items.

Example results:
* MWGSDYVQLSR [MAP3K4_Y582] | 0.685
* RARIRYAQEHD [NSD1_Y1987] | 0.757
* INPIIYAFVVE [CCR5_Y297_G301V] | 2.42
* QGLRLYRTHLA [BTK_Y617_P619T] | 0.339
* RGFDTYFGYLL [ARSB_Y165] | 8.58
* PRPAGYPSMVS [CACNA1C_Y1832_T1835M] | 0.48
* NQNIGYKLGHR [KCNN3_Y268] | 0.361
* TRNVRYLTLDI [AKR1C2_Y305_N300T] | 0.407
* IRGNMYYENSY [EGFR_Y112] | 0.468
* HEEDNYIEMIP [NWD2_Y566_L569M] | 0.67

Q: Need phosphorylation enrichment, item EEGNPSFSSAR [MCCC2_Y520_Y520S_YF]
Result: 0.42

Q: For the sequence shown here, VDSIEYEVASQ [SLC7A7_Y7_T5I] , give the reported phosphorylation enrichment.
Result: 0.491

Q: Param item = RRNEIYEIKVD [LGR5_Y387_H383R] ; retrieve measured phosphorylation enrichment.
Result: 5.59

Q: Given the sequence DAGTDYVGISC [FREM2_Y2061_R2066C] , what is its reported phosphorylation enrichment?
Result: 0.522

Q: Would you kindly share the measured phosphorylation enrichment for AESPEHVHMFT [FAM111A_Y511_Y511H_YF] ?
Result: 0.446
